Provenance of the data: paper PMC11048155

System: S. suis serotype 2
Assay: MIC measurement (broth microdilution)
Assay type: cell-based, Streptococcus suis
Settings: source 672/22, 18–24 h at 37 °C
Below, each entry is listed with its recorded MIC.

{"columns": ["record_smiles", "unit_symbol", "readout_relation", "MIC"],
 "data": [
  ["COc1ccc(-c2cccc(S(=O)(=O)N[C@@H](Cc3cccc(C(=N)N)c3)C(=O)N3CCC(NC(=O)NC(C)(C)C)CC3)c2)c(OC)c1", "µM", "=", 50],
  ["COc1ccc(-c2cccc(S(=O)(=O)N[C@@H](Cc3cccc(C(=N)N)c3)C(=O)N3CCC(N)CC3)c2)c(OC)c1", "µM", "=", 50],
  ["N=C(N)c1cccc(C[C@H](NS(=O)(=O)c2cccc(-c3ccc(Cl)cc3Cl)c2)C(=O)N2CCC(CCN)CC2)c1", "µM", "<", 1.5625],
  ["N=C(N)c1cccc(C[C@H](NS(=O)(=O)c2cccc(-c3ccc(Cl)cc3Cl)c2)C(=O)N2CCC(N)CC2)c1", "µM", "=", 3.125],
  ["N=C(N)c1cccc(C[C@H](NS(=O)(=O)c2cccc(-c3ccc(Cl)cc3Cl)c2)C(=O)N2CCC(CN)CC2)c1", "µM", "=", 6.25]
]}
